Provenance of the data: PubChem BioAssay (NCI)

- Tested on: A549 NSCLC
- ASSAY_PROTOCOL: NCI tumour cell line growth inhibition, 48 h

{"MOLECULE": "CC1=NN(C(=O)c2ccncc2)C(=O)C1", "TGI": "> 100 µM"}
{"MOLECULE": "CO/N=C(\\COc1ccc2c(c1)[nH]c1ccccc12)c1ccc(F)cc1", "TGI": "> 100 µM"}
{"MOLECULE": "O=C(CCl)NNC1=Nc2ccc(Cl)cc2SC1", "TGI": "26.2 µM"}
{"MOLECULE": "CC/C=C\\C/C=C\\C/C=C\\CCCCCCCC(=O)OCC(O)CO (centres undefined)", "TGI": "> 100 µM"}
{"MOLECULE": "CCOC(=O)/C(C=Nc1c(C)n(C)n(-c2ccccc2)c1=O)=C(/C)O", "TGI": "> 100 µM"}
{"MOLECULE": "OCc1ccc(N2CCCC2c2ccccc2)cc1Cl (centres undefined)", "TGI": "14.9 µM"}
{"MOLECULE": "COc1cccc(OC(=O)c2ccc(C(F)(F)F)nc2Nc2cc(Cl)ccc2C)c1", "TGI": "> 100 µM"}
{"MOLECULE": "COc1cc2c3c(n(C)c(=O)c2cc1OC)-c1cc2c(cc1/C3=C\\CCCCN1C(=O)c3ccccc3C1=O)OCO2", "TGI": "27.9 µM"}
{"MOLECULE": "COc1ccc(-c2nc(Nc3cc(C)[nH]n3)c3ccccc3n2)cc1", "TGI": "44.9 µM"}
{"MOLECULE": "COc1nc(=O)n(COC(CO)CN2C(=O)c3ccccc3C2=O)cc1Cc1cccc(OCc2ccccc2)c1 (centres undefined)", "TGI": "75.8 µM"}
{"MOLECULE": "COc1ccc2c(c1)C(=O)C1CC(=O)CCC21 (centres undefined)", "TGI": "> 100 µM"}
{"MOLECULE": "CC1CC(C)C(C#N)N(C)c2ccccc21 (centres undefined)", "TGI": "> 100 µM"}
{"MOLECULE": "CC1(C)OC(=O)C(C#N)=C1/C=C/c1coc2ccc(Cl)cc2c1=O", "TGI": "> 100 µM"}
{"MOLECULE": "O=C1OC2(CC1C1(O)C3CC4CC(C3)CC1C4)C1CC3CC(C1)CC2C3 (centres undefined)", "TGI": "> 100 µM"}
